- protocol: Tryptophan fluorescent binding assay
- assay-conditions: tryptophan fluorescence; 50 µM peptide, lipid titrated 0-5000 µM; phosphate buffered saline 1X, pH 7.4; values as lipid per peptide
Peptide text beside a SMILES is read from it.
Measured Lipid Concentration-induced 50% Peptide Binding (L/P), 3POPC/1POPG Vesicle, listed per entry for reference.
observation-type: Lipid Concentration-induced 50% Peptide Binding (L/P), 3POPC/1POPG Vesicle

INSERT INTO measurements (compound, unit_abbrev, readout_value) VALUES
  ('CC(C)C[C@H](NC(=O)CN)C(=O)N[C@@H](CC(C)C)C(=O)N[C@@H](Cc1c[nH]cn1)C(=O)N[C@@H](CC(C)C)C(=O)N[C@@H](CC(C)C)C(=O)N[C@@H](CCC(=O)O)C(=O)N[C@@H](CC(C)C)C(=O)N[C@@H](CC(C)C)C(=O)N[C@@H](CC(C)C)C(=O)N[C@@H](CCC(=O)O)C(=O)N[C@@H](C)C(=O)N[C@@H](C)C(=O)NCC(=O)N[C@@H](Cc1c[nH]c2ccccc12)C(N)=O [HEE] (H-GLLHLLELLLEAAGW-NH2)', 'L/P', 0.50),
  ('CC(C)C[C@H](NC(=O)CN)C(=O)N[C@@H](CC(C)C)C(=O)N[C@@H](CCC(=O)O)C(=O)N[C@@H](CC(C)C)C(=O)N[C@@H](CC(C)C)C(=O)N[C@@H](CCCCN)C(=O)N[C@@H](CC(C)C)C(=O)N[C@@H](CC(C)C)C(=O)N[C@@H](CC(C)C)C(=O)N[C@@H](CCCCN)C(=O)N[C@@H](C)C(=O)N[C@@H](C)C(=O)NCC(=O)N[C@@H](Cc1c[nH]c2ccccc12)C(N)=O [EKK] (H-GLLELLKLLLKAAGW-NH2)', 'L/P', 0.63),
  ('CC(C)C[C@H](NC(=O)CN)C(=O)N[C@@H](CC(C)C)C(=O)N[C@@H](CC(=O)O)C(=O)N[C@@H](CC(C)C)C(=O)N[C@@H](CC(C)C)C(=O)N[C@@H](Cc1c[nH]cn1)C(=O)N[C@@H](CC(C)C)C(=O)N[C@@H](CC(C)C)C(=O)N[C@@H](CC(C)C)C(=O)N[C@@H](CCCCN)C(=O)N[C@@H](C)C(=O)N[C@@H](C)C(=O)NCC(=O)N[C@@H](Cc1c[nH]c2ccccc12)C(N)=O [DHK] (H-GLLDLLHLLLKAAGW-NH2)', 'L/P', 0.38),
  ('CC(C)C[C@H](NC(=O)CN)C(=O)N[C@@H](CC(C)C)C(=O)N[C@@H](CCCCN)C(=O)N[C@@H](CC(C)C)C(=O)N[C@@H](CC(C)C)C(=O)N[C@@H](CCCCN)C(=O)N[C@@H](CC(C)C)C(=O)N[C@@H](CC(C)C)C(=O)N[C@@H](CC(C)C)C(=O)N[C@@H](CCC(=O)O)C(=O)N[C@@H](C)C(=O)N[C@@H](C)C(=O)NCC(=O)N[C@@H](Cc1c[nH]c2ccccc12)C(N)=O [KKE] (H-GLLKLLKLLLEAAGW-NH2)', 'L/P', 0.44),
  ('CC(C)C[C@H](NC(=O)CN)C(=O)N[C@@H](CC(C)C)C(=O)N[C@@H](CCC(=O)O)C(=O)N[C@@H](CC(C)C)C(=O)N[C@@H](CC(C)C)C(=O)N[C@@H](Cc1c[nH]cn1)C(=O)N[C@@H](CC(C)C)C(=O)N[C@@H](CC(C)C)C(=O)N[C@@H](CC(C)C)C(=O)N[C@@H](CCCCN)C(=O)N[C@@H](C)C(=O)N[C@@H](C)C(=O)NCC(=O)N[C@@H](Cc1c[nH]c2ccccc12)C(N)=O [EHK] (H-GLLELLHLLLKAAGW-NH2)', 'L/P', 0.42);
